# Target of assay: IRAK4 (Homo sapiens (Human), UniProt Q9NWZ3)
# Sequence (Q9NWZ3 whole entry): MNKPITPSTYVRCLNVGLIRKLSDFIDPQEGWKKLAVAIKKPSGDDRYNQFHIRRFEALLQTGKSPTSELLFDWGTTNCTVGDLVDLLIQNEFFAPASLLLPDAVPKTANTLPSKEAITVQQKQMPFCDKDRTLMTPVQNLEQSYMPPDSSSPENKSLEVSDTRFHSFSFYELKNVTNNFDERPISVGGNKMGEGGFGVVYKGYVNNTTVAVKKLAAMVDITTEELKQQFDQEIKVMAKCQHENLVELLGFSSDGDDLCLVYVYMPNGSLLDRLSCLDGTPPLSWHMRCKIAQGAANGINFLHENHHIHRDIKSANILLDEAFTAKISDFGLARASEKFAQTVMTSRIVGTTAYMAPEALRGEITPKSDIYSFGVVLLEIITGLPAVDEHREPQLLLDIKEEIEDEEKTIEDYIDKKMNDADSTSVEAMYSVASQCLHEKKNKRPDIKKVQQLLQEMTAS
# Experiment notes: IRAK4 kinase activity, IMAP fluorescence polarization assay
# Assay type: biochemical
# Run parameters: 100 μM ATP; read-out: IC50
Measured endpoint: IC50 (µM)

CC(C)S(=O)(=O)N1CCC(c2nc(N[C@@H]3CCCNC3)c(-c3nc4ccccc4s3)c(=O)[nH]2)CC1 :: 0.21

A. O=c1[nH]c(N2CCOCC2)nc(N[C@H]2c3ccccc3C[C@H]2O)c1-c1nc2ccccc2s1
B. CC1(Nc2nc(N3CCOCC3)[nH]c(=O)c2-c2nc3ccccc3s2)CCCNC1 (stereo not shown)
C. O=c1[nH]c(N2CCOCC2)nc(NCC2CCCCN2)c1-c1ccc2ccccc2n1 (stereo not shown)
input: Could you please sort these 3 entries by IC50 from high to low? Return the labels ranked in the requested order, please.
output: A, C, B

###

# Target of assay: IRAK4 (Homo sapiens (Human))
# Experiment notes: IRAK4 kinase activity, IMAP fluorescence polarization assay
# Assay type: biochemical
# Run parameters: unit inferred; 100 μM ATP; read-out: IRAK4 IC50
Measured endpoint: IC50 (nM)

Some compounds with recorded IC50:
O=c1[nH]c(N2CCc3cnccc3C2)nc(N[C@@H]2C[C@H](CO)[C@@H](O)[C@H]2O)c1-c1nc2ccccc2s1 [Example 74] :: 26.4
O=c1[nH]c(N2CCC(n3ccnn3)CC2)nc(N[C@@H]2C[C@H](CO)[C@@H](O)[C@H]2O)c1-c1nc2ccccc2s1 [Example 67] :: 11.8

P. Cn1cc(C2CCN(c3nc(N[C@@H]4C[C@H](CO)[C@@H](O)[C@H]4O)c(-c4nc5ccccc5s4)c(=O)[nH]3)CC2)nn1 [Example 73]
Q. O=c1[nH]c(N2CCC(c3ccccn3)CC2)nc(N[C@@H]2C[C@H](CO)[C@@H](O)[C@H]2O)c1-c1nc2ccccc2s1 [Example 78]
R. CN1CCC2(CCN(c3nc(N[C@@H]4C[C@H](CO)[C@@H](O)[C@H]4O)c(-c4nc5ccccc5s4)c(=O)[nH]3)CC2)C1=O [Example 66]
S. O=c1[nH]c(N2CCCN(Cc3nccs3)CC2)nc(N[C@@H]2C[C@H](CO)[C@@H](O)[C@H]2O)c1-c1nc2ccccc2s1 [Example 75]
input: Could you please sort these 4 entries by IC50 from high to low? Return the labels ranked in the requested order, please.
output: S, Q, P, R

###

# Target of assay: IRAK4 (Homo sapiens (Human), UniProt Q9NWZ3)
# Experiment notes: IRAK4 kinase activity, IMAP fluorescence polarization assay
# Assay type: biochemical
# Run parameters: 100 μM ATP; read-out: IC50
pIC50: −log10 of the molar value. Counter-ions that a name gives are not always drawn.
Measured endpoint: pIC50

Some molecules with recorded pIC50:
CC1(c2ccc(Cl)cc2)CN(c2nc(N[C@@H]3CCCNC3)c(-c3nc4ccccc4s3)c(=O)[nH]2)CCO1 (some centres unmarked) [Example 319, hydrochloride] :: 5.60
CC(=O)NC1CCN(c2nc(N[C@@H]3CCCNC3)c(-c3nc4ccccc4s3)c(=O)[nH]2)CC1 :: 7.03
N#Cc1cccc(-c2c(N[C@@H]3CCCNC3)nc(N3CCOCC3)[nH]c2=O)n1 :: 6.78
O=c1[nH]c(N2CCC3(CCN(S(=O)(=O)c4ccccc4)C3)C2)nc(N[C@@H]2CCCNC2)c1-c1nc2ccccc2s1 (some centres unmarked) :: 7.64
O=c1[nH]c(N2CCOC(CO)C2)nc(N[C@@H]2CCCNC2)c1-c1nc2ccccc2s1 (some centres unmarked) :: 7.37
O=c1[nH]c(N2CCOCC2)nc(NCC(O)CO)c1-c1ccc2ccccc2n1 (centres unmarked) :: 5.77
O=c1[nH]c(N2CCOCC2)nc(NCCN2CCC(O)CC2)c1-c1nc2ccccc2s1 :: 6.11
O=C(O)C1CN(c2nc(N[C@@H]3CCCNC3)c(-c3nc4ccccc4s3)c(=O)[nH]2)CCO1 (some centres unmarked) :: 6.60
CNC(=O)N1CCC(c2nc(N[C@@H]3CCCNC3)c(-c3nc4ccccc4s3)c(=O)[nH]2)CC1 :: 6.70
O=c1[nH]c(N2CCOCC2)nc(NC(CO)CO)c1-c1nc2ccccc2s1 :: 6.96

1. O=c1[nH]c(N2CC[C@H](O)C2)nc(N[C@@H]2CCCNC2)c1-c1nc2ccccc2s1
2. CN(c1nc(NC2CCCNC2)c(-c2nc3ccccc3s2)c(=O)[nH]1)[C@H]1CC[C@H](O)CC1 (some centres unmarked)
input: Field: lower recorded pIC50 (choose 1 or 2 ) Kindly state the label of the option you pick.
output: 2
(2: 6.41, 1: 7.64)

###

# Target of assay: IRAK4 (Homo sapiens (Human))
# Experiment notes: IRAK4 kinase activity, IMAP fluorescence polarization assay
# Type: biochemical
# Run parameters: unit inferred; 100 μM ATP; read-out: IRAK4 IC50
pIC50: −log10 of the molar value.
Measured endpoint: pIC50

Some molecules with recorded pIC50:
O=c1[nH]c(N2CCC(c3ccncc3)C2)nc(N[C@@H]2C[C@H](CO)[C@@H](O)[C@H]2O)c1-c1nc2ccccc2s1 (stereo partly drawn) :: 7.51
O=c1[nH]c(N2CCC(c3cccnc3)CC2)nc(N[C@@H]2C[C@H](CO)[C@@H](O)[C@H]2O)c1-c1nc2ccccc2s1 :: 7.88
O=c1[nH]c(N2CCC(Cn3cccn3)CC2)nc(N[C@@H]2C[C@H](CO)[C@@H](O)[C@H]2O)c1-c1nc2ccccc2s1 :: 6.92

P. O=c1[nH]c(N2CCc3ccncc3C2)nc(N[C@@H]2C[C@H](CO)[C@@H](O)[C@H]2O)c1-c1nc2ccccc2s1
Q. O=c1[nH]c(N2CCN(c3cccnc3)CC2)nc(N[C@@H]2C[C@H](CO)[C@@H](O)[C@H]2O)c1-c1nc2ccccc2s1
R. O=c1[nH]c(N2CCN(c3ccccn3)CC2)nc(N[C@@H]2C[C@H](CO)[C@@H](O)[C@H]2O)c1-c1nc2ccccc2s1
input: Task for the reader: rank each entry by its pIC50, from the minimum upward. Return the labels ranked in the requested order, please.
output: R, P, Q

###

# Target of assay: UniProt:Q9NWZ3
# Experiment notes: IRAK4 kinase activity, IMAP fluorescence polarization assay
# Type: biochemical
# Run parameters: 100 μM ATP; read-out: IC50
Measured endpoint: IC50 (nM)

Some molecules with recorded IC50:
O=c1[nH]c(N2CCOCC2)nc(NCC2CCNCC2)c1-c1nc2ccccc2s1 :: 330
O=c1[nH]c(C2CCN(CC3CC3)CC2)nc(N[C@@H]2CCCNC2)c1-c1nc2ccccc2s1 :: 340
O=C1C[C@H](Nc2nc(N[C@@H]3CCCNC3)c(-c3nc4ccccc4s3)c(=O)[nH]2)Cc2ccccc2N1 :: 8900
O=c1[nH]c(N2CCOCC2)nc(NCCNCCO)c1-c1ccc2ccccc2n1 :: 670

1. O=c1[nH]c(N2CCC2)nc(N[C@@H]2CCCNC2)c1-c1nc2ccccc2s1
2. NC1CCCCC1Nc1nc(N2CCOCC2)[nH]c(=O)c1-c1nc2ccccc2s1 (centres unmarked)
3. O=c1[nH]c(NCCO)nc(N[C@@H]2CCCNC2)c1-c1nc2ccccc2s1
4. O=c1[nH]c(N2CCOCC2)nc(NC2CCCCC2O)c1-c1nc2ccccc2s1 (centres unmarked)
input: Task for the reader: rank each entry by its IC50, from the minimum upward. Return the labels ranked in the requested order, please.
output: 2, 3, 1, 4
(2: 230 nM, 3: 450 nM, 1: 2000 nM, 4: 5600 nM)

###

# Target of assay: IRAK4 (Homo sapiens (Human))
# Experiment notes: IRAK4 kinase activity, IMAP fluorescence polarization assay
# Type: biochemical
# Run parameters: 100 μM ATP; read-out: IC50
Measured endpoint: IC50 (nM)

CN(C)CCNc1nc(N2CCOCC2)[nH]c(=O)c1-c1nc2ccccc2s1 :: 1600
CC(=O)N1CCN(c2nc(N[C@@H]3CCCNC3)c(-c3nc4ccccc4s3)c(=O)[nH]2)CC1 :: 450
N=C(N)CNc1nc(N2CCOCC2)[nH]c(=O)c1-c1nc2ccccc2s1 :: 300
N#Cc1ccnc(-c2c(N[C@@H]3CCCNC3)nc(N3CCOCC3)[nH]c2=O)c1 :: 5620
NC1CCN(c2nc(N[C@@H]3CCCNC3)c(-c3nc4ccccc4s3)c(=O)[nH]2)CC1 :: 240
O=c1[nH]c(N2CCOCC2)nc(N[C@@H]2CCCNC2)c1-c1ccc(C2CC2)cn1 :: 512

1. O=c1[nH]c(N2CCOCC2)nc(N[C@@H]2CCCNC2)c1-c1csc(-n2ccnc2)n1
2. Cc1ccc2sc(-c3c(N[C@@H]4CCCNC4)nc(N4CCOCC4)[nH]c3=O)nc2c1
3. O=C1C[C@@H](Nc2nc(N[C@@H]3CCCNC3)c(-c3nc4ccccc4s3)c(=O)[nH]2)Cc2ccccc2N1
4. CC(C)N1CCC(c2nc(N[C@@H]3CCCNC3)c(-c3nc4ccccc4s3)c(=O)[nH]2)CC1
input: Task for the reader: rank each entry by its IC50, from the minimum upward. Return the labels ranked in the requested order, please.
output: 1, 2, 4, 3

Reference for the values: patent US9221809B2
